# Assay: Intrinsic clearance in rat liver microsomes after 30 mins
# Type: ADME
# Study Conditions: read-out: CLH
Measured microsomal CLint accompanies every entry in the list below.
Measure Name: microsomal CLint

>  <Compound>
O=S(=O)(N[C@@H](c1nc2cccnc2s1)c1ccccc1Cl)c1ccc2c(c1)OCCCO2

>  <Experimental Result>
> 399 µL/min/mg

$$$$
>  <Compound>
C[C@@](O)(c1ccnc(-c2cccc3cc([C@H](NS(=O)(=O)C4CC4)c4ccccc4Cl)sc23)c1)C(F)(F)F

>  <Experimental Result>
< 14 µL/min/mg

$$$$
>  <Compound>
O=S(=O)(N[C@@H](c1cc2ccccc2s1)c1ccccc1Cl)c1ccc2c(c1)OCC(F)(F)CO2

>  <Experimental Result>
> 399 µL/min/mg

$$$$
>  <Compound>
C[C@](O)(c1ccnc(-c2cccc3cc([C@H](NS(=O)(=O)C4CC4)c4ccccc4Cl)sc23)c1)C(F)(F)F

>  <Experimental Result>
< 14 µL/min/mg

$$$$
>  <Compound>
O=S(=O)(N[C@@H](c1cc2ccccc2s1)c1ccccc1Cl)c1ccccc1

>  <Experimental Result>
> 399 µL/min/mg

$$$$
>  <Compound>
O=S(=O)(N[C@H](c1ccccc1)c1cc2ccccc2o1)c1ccc2c(c1)OCCCO2

>  <Experimental Result>
> 399 µL/min/mg

$$$$
>  <Compound>
O=S(=O)(N[C@@H](c1cc2ccccc2s1)c1ccccc1Cl)c1ccc2c(c1)OCC(F)CO2 (mixture of isomers)

>  <Experimental Result>
> 399 µL/min/mg

$$$$
>  <Compound>
CC(C)(O)c1ccnc(-c2cccc3cc([C@H](NS(=O)(=O)C4CC4)c4cc(N)ncc4Cl)sc23)c1

>  <Experimental Result>
67 µL/min/mg

$$$$
>  <Compound>
CC(C)(O)c1ccnc(-c2cccc3cc([C@H](NS(=O)(=O)C4CC4)c4nc(N)ncc4Cl)sc23)c1

>  <Experimental Result>
28 µL/min/mg

$$$$
>  <Compound>
C[C@](O)(c1cccc(-c2cccc3cc([C@H](NS(=O)(=O)C4CC4)c4ccccc4Cl)sc23)c1)C(F)(F)F

>  <Experimental Result>
< 14 µL/min/mg

$$$$
>  <Compound>
C[C@@](O)(c1cccc(-c2cccc3cc([C@H](NS(=O)(=O)C4CC4)c4ccccc4Cl)sc23)c1)C(F)(F)F

>  <Experimental Result>
< 14 µL/min/mg

$$$$
>  <Compound>
CC(C)(O)c1ccnc(-c2cccc3cc([C@H](NS(=O)(=O)C4CC4)c4c(Cl)cnc(N)c4F)sc23)c1

>  <Experimental Result>
26 µL/min/mg

$$$$
>  <Compound>
O=S(=O)(N[C@@H](c1cc2ccccc2s1)c1ccccc1Cl)c1ccc2c(c1)OCO2

>  <Experimental Result>
> 399 µL/min/mg

$$$$
>  <Compound>
CC(C)(O)c1ccnc(-c2cccc3cc([C@H](NS(=O)(=O)C4CC4)c4c(F)cccc4Cl)sc23)c1

>  <Experimental Result>
18 µL/min/mg

$$$$
